Target: PI3-kinase p110-alpha/p85-alpha (Homo sapiens, UniProt P42336)
Sequence (P27986 whole entry): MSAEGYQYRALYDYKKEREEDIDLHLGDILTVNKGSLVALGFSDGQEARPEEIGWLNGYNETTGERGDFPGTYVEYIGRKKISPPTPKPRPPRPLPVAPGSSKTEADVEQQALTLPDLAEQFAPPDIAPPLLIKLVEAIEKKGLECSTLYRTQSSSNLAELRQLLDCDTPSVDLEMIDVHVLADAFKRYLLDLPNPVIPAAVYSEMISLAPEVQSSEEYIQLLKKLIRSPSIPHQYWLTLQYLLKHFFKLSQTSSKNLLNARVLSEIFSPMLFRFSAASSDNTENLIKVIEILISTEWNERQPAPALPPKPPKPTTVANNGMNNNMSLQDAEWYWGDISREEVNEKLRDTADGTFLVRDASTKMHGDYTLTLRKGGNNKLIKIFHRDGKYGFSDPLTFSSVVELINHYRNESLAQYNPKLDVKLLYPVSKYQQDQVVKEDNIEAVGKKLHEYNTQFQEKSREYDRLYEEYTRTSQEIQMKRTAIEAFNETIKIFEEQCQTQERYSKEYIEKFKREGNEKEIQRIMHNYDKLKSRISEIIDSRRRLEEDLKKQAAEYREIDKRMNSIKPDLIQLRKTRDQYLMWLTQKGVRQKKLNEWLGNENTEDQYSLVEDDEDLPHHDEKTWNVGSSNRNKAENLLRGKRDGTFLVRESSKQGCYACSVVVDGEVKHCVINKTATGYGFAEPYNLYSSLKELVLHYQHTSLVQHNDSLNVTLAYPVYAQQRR
Sequence (P42336 whole entry): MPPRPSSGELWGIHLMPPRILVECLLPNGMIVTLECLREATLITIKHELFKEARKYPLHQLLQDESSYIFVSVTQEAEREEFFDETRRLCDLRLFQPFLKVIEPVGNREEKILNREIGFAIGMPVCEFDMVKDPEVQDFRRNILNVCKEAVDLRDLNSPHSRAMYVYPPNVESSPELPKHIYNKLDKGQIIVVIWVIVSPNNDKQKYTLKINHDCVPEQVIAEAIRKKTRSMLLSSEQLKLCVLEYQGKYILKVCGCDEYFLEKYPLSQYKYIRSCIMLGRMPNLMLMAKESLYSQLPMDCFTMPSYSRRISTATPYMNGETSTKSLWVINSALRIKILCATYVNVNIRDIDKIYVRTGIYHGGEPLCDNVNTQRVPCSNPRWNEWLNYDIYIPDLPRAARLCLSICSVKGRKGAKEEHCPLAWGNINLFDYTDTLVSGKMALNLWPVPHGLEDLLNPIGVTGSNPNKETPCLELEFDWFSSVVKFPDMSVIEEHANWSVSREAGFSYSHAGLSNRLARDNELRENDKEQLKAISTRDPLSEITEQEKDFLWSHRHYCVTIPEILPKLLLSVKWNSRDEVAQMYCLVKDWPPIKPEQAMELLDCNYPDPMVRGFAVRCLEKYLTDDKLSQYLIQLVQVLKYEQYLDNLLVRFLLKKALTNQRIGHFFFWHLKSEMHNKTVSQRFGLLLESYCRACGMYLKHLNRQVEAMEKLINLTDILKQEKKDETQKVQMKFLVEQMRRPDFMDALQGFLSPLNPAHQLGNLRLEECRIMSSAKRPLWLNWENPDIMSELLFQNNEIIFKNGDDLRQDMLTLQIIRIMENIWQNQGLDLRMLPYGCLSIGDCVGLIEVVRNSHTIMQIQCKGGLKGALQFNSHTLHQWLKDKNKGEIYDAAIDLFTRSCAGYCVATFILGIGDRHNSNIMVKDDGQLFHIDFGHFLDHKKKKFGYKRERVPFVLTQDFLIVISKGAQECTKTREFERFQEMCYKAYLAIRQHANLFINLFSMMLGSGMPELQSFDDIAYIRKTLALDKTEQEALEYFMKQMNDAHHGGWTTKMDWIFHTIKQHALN
Assay: Inhibition of N-terminal His6-tagged recombinant full-length human p110alpha/untagged recombinant full length human p85alpha expressed in baculovirus infected Sf21 cells using phosphatidylinositol as substrate in presence of gamma-32P-ATP after 5 mins by thin layer chromatographic method
Entries annotated with measured IC50

Example entries and their recorded answers appear below.
smiles_structure=Cc1cccc2cc(Cn3nc(/C=C4/SC(=O)NC4=O)c4c(N)ncnc43)n(-c3ccccc3F)c(=O)c12 observed_property=IC50 result="< 10 µM"
smiles_structure=Cc1cccc2cc(Cn3nc(-c4cccc(O)c4)c4c(N)ncnc43)n(C3CCC3)c(=O)c12 observed_property=IC50 result="> 10 µM"
smiles_structure=Cc1ccccc1-n1c(Cn2nc(-c3ccc(O)c(Cl)c3)c3c(N)ncnc32)cc2cccc(C)c2c1=O observed_property=IC50 result="> 10 µM"
smiles_structure=CC(=O)Nc1nc2ccc(-c3nn(Cc4cc5cccc(C)c5c(=O)n4-c4ccccc4C)c4ncnc(N)c34)cc2s1 observed_property=IC50 result="1 to 10 µM"
smiles_structure=Cc1cccc2cc(Cn3nc(-c4cccc(O)c4)c4c(N)ncnc43)n(-c3ccccc3OCCN3CCOCC3)c(=O)c12 observed_property=IC50 result="> 10 µM"
smiles_structure=Cc1ccccc1-n1c(Cn2nc(I)c3c(N)ncnc32)cc2ccccc2c1=O observed_property=IC50 result="> 10 µM"

Request: Bench note: what IC50 did Cc1ccccc1-n1c(Cn2nc(-c3ccc4nc(N)ccc4c3)c3c(N)ncnc32)cc2cccc(C)c2c1=O show?
Result: < 1 µM

Where these numbers come from: ChEMBL document CHEMBL3879901
